Tested on: Wolbachia pipientis
MEASUREMENT_PROTOCOL: Anti-Wolbachia Cell-Based Screen
Format: functional
Parameters: scale not given: in the data most compounds retested in dose-response had high values
ASSAY_SETUP: 5 µM
About 13,000 (27%) of roughly 48,000 compounds showed an effect of 50% or more. Some of the results follow.
This listing pairs compounds with measured Percent Effect.
// return numeric value only (unit: %, not printed)

Examples from the recorded data:
COMPOUND: c1cnc(N2CCOCC3(CCN(c4cnccn4)CC3)C2)nc1
VALUE_OBSERVED: -29.45
--
COMPOUND: CC(=O)N1CCC(c2nnc3ccc(C(=O)NCCN(C)C)cn23)C1 (stereo not given)
VALUE_OBSERVED: -5.924
--
COMPOUND: CC(C)C(=O)N1CCN(S(=O)(=O)C2CC2)CC2(CC(=O)N(C)C2)C1 (stereo not given)
VALUE_OBSERVED: -3.068

// query Percent Effect value for entry COc1cc(N2CC[C@@H]3O[C@@H](c4ccncn4)C[C@H]3C2)ncn1
-28.63

Also, CCc1nc(CCNC(=O)Nc2cc(C(N)=O)sc2C)cs1 please.
34.11

Also, Cc1cc(N2CCOC(c3ccncn3)C2)ncn1 (stereo not given) please.
99.32

Also, O=C(c1cccc(O)c1)N1CCN(Cc2nnc(C3CCC3)o2)CC1 please.
6.828

Also, Cc1ccc(C(=O)N2CCOCC2)cc1NCc1ccsc1 please.
-10.53
